B1: LARP4 (parent)
chain: WTVANMEEIKKLTTDPDLILEVLR

# Variants of: B1
# procedure.details: protein stability index of a GFP-peptide fusion (GPS, HEK-293T) (PSI 1-6); higher = more stable;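 note: lentivirally expressed fusions sorted by FACS into six bins by GFP to DsRed ratio, PSI derived from sequencing read proportions per bin multiplied by bin number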
# condition.info: c terminus: a fixed tail appended
The label depends only on protein stability index: t if it is at least 3, f if it is smaller.

entry.sequence	group.label
WTVANMHEIKKLTTDPDLILEVLR [E7H]	f
WTVANMEEIKKLTTDPCLILEVLR [D17C]	f
WTVANMEEIKKLTTDPMLILEVLR [D17M]	f
WTVANGEEIKKLTTDPDLILEVLR [M6G]	f
WTVANMEEIKILTTDPDLILEVLR [K11I]	f

Proceed to the following item.
Say whether WTVANMEEIKKLTTDPDLIDEVLR [L20D] shows protein stability index of 3 or more. t
